Below, each of the compounds is paired with its reported melting point value.
Where a name gives a salt, the structure may show the parent alone.

Using the record for COCCN(CCOC)c1ccc(Nc2ncc3c(C)c(Br)c(=O)n(C4CCCC4)c3n2)nc1 , report its melting point.
94 to 95 °C

Any idea what melting point was measured for Nc1cccc(Nc2ncc3cc(Br)c(=O)n(C4CCCC4)c3n2)n1 ?
> 300 °C

Quick one: melting point of Cc1c(Br)c(=O)n(C2CCCC2)c2nc(Nc3ccccn3)ncc12 ?
267 to 268 °C

Quick check: melting point of O=c1ccc2cnc(Nc3ccc(N4CCNCC4)cn3)nc2n1C1CCCC1 (as salt: hydrochloride) ?
213 to 215 °C

Could you tell me which melting point is on file for CC(=O)c1cc2cnc(Nc3ccc(N4CCNCC4)cn3)nc2n(C2CCCC2)c1=O (as salt: hydrochloride) ?
> 300 °C

Which melting point value is on record for COCCN(CCOC)c1ccc(Nc2ncc3c(C)c(C(C)=O)c(=O)n(C4CCCC4)c3n2)nc1 ?
138 °C

Name the recorded melting point for Cc1c(I)c(=O)n(C2CCCC2)c2nc(Nc3ccc(N4CCNCC4)cn3)ncc12 .
> 240 °C

Returns the measured melting point for the input compound. Input: Cc1c(Br)c(=O)n(C2CCCC2)c2nc(Nc3ccc(N4CCN(C)CC4)cn3)ncc12
278 to 280 °C (dec.)

Suppose we examine the compound O=c1ccc2cnc(Nc3ccc(N4CCNCC4)cn3)nc2n1C1CCCCC1 (as salt: hydrochloride) ; what melting point value has been reported?
228 to 230 °C

Tell me the measured melting point of O=c1ccc2cnc(Nc3ccc(N4CCNCC4)cn3)nc2n1C1CC1 (as salt: hydrochloride) , please.
> 300 °C

====

- targetOfAssay: Cdk4/Cyclin D (Homo sapiens, UniProt P11802)
- Sequence (P11802 whole entry, species assumed): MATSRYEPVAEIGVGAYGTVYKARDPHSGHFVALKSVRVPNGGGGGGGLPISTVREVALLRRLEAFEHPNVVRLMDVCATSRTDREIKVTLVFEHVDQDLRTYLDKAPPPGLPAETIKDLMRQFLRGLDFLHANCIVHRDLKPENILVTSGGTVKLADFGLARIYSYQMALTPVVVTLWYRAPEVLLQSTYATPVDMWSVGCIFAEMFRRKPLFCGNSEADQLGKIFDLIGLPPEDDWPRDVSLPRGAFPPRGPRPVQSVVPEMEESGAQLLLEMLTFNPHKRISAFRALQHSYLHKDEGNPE
- Sequence (P24385 whole entry partner, species assumed): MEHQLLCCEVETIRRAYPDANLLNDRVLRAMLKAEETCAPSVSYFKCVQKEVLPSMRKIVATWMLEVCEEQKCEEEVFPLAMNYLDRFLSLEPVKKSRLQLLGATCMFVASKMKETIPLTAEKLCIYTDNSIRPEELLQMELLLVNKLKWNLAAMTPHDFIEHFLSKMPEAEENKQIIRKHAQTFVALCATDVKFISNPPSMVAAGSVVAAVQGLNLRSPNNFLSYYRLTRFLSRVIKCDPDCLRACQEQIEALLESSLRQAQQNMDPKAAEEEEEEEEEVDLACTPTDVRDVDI
- assayInfo: Assay for Inhibition of Cdk4/Cyclin D
- testConditions: 25 μM ATP, retinoblastoma protein substrate, 25° C., 15 minutes
Where a name gives a salt, the structure may show the parent alone.
outcomeMeasure: IC50 (nM)

(I) O=c1ccc2cnc(Nc3ccc(N4CCNCC4)cn3)nc2n1C1CC1 [Example 64]
(II) CC(=O)c1cc2cnc(Nc3ccc(N4CCNCC4)cn3)nc2n(C2CCCC2)c1=O [Example 33, hydrochloride]
(III) Cc1c(Br)c(=O)n(C2CCCC2)c2nc(Nc3ccc(N4CCOCC4)cn3)ncc12 [Example 98]
Hello, I need these entries ordered by IC50, highest reading first. Thanks! Give the order by naming the labels one after another as requested.
III, I, II

====

Counter-ions that a name gives are not always drawn.
Data export: IC50 values recorded with FGF receptor (FGFr) tyrosine kinase (Homo sapiens, UniProt P11362).
Sequence (P11362 22-822): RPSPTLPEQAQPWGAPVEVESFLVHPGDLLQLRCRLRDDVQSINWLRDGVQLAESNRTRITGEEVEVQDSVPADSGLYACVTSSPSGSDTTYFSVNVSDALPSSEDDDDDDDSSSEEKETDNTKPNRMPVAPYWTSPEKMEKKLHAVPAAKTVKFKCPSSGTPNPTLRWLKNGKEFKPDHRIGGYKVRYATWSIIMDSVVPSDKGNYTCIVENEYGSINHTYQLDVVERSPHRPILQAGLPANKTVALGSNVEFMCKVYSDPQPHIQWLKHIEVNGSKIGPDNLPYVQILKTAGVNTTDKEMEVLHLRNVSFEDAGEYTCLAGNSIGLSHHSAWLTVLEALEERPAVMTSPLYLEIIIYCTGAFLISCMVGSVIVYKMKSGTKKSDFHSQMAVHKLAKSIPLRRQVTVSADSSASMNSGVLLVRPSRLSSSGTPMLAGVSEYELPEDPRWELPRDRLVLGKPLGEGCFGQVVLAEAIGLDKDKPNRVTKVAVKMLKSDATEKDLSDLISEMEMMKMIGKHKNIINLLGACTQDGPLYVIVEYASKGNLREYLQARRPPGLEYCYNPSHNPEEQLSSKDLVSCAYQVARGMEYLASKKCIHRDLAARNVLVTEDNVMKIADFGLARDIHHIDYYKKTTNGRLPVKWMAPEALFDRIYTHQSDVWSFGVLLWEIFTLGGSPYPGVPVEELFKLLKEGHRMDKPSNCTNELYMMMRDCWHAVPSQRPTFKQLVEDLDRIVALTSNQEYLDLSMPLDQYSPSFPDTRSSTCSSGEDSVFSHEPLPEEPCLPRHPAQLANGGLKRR

Some solved cases for reference:
[[record]]
molecule = "CC(=O)c1c(C)c2cnc(Nc3ccc(N4CC(C)NC(C)C4)cn3)nc2n(C2CCCC2)c1=O (centres unmarked)"
result = "> 5 µM"

[[record]]
molecule = "O=c1c(Br)cc2cnc(Nc3ccc(N4CCNCC4)cn3)nc2n1C1CCCC1 [Example 3, hydrochloride]"
result = "1.03 µM"

[[record]]
molecule = "CCc1cc2cnc(Nc3ccc(N4CCNCC4)cn3)nc2n(C2CCCC2)c1=O [Example 5, hydrochloride]"
result = "0.99 µM"

[[record]]
molecule = "Cc1cc(=O)n(C2CCCC2)c2nc(Nc3ccc(N4CCNCC4)cn3)ncc12"
result = "> 5 µM"

[[record]]
molecule = "O=c1c(CO)cc2cnc(Nc3ccc(N4CCNCC4)cn3)nc2n1C1CCCC1 [Example 29, hydrochloride]"
result = "4.38 µM"

[[record]]
molecule = "CC(C)COc1cc2cnc(Nc3ccc(N4CCNCC4)cn3)nc2n(C2CCCC2)c1=O [Example 22, hydrochloride]"
result = "> 5 µM"

[[record]]
molecule = "CC(=O)c1cc2cnc(Nc3ccc(N4CCNCC4)cn3)nc2n(C2CCCC2)c1=O [Example 33, hydrochloride]"
result = "> 5 µM"

[[record]]
molecule = "Nc1cc2cnc(Nc3ccc(N4CCNCC4)cn3)nc2n(C2CCCC2)c1=O [Example 11, hydrochloride]"
result = "2.12 µM"


Missing value: IC50, FGF receptor (FGFr) tyrosine kinase (Homo sapiens, UniProt P11362), entry CC(=O)c1c(C)c2cnc(Nc3ccc(N4CCOCC4)cn3)nc2n(C2CCCC2)c1=O . Fill in?
> 5 µM

Quick check: IC50 on FGF receptor (FGFr) tyrosine kinase (Homo sapiens, UniProt P11362), item CC(=O)c1c(C)c2cnc(Nc3ccc(N4CC(C)OC(C)C4)cn3)nc2n(C2CCCC2)c1=O (centres unmarked) ?
> 5 µM

// map O=c1ccc2cnc(Nc3ccc(N4CCNCC4)cn3)nc2n1C1CCCC1 to recorded IC50 (system: FGF receptor (FGFr) tyrosine kinase (Homo sapiens, UniProt P11362))
1.52 µM

API: value(readout= IC50, system= FGF receptor (FGFr) tyrosine kinase (Homo sapiens, UniProt P11362), query= O=c1c(Cc2ccccc2)cc2cnc(Nc3ccc(N4CCNCC4)cn3)nc2n1C1CCCC1 [Example 24, hydrochloride] )
> 5 µM

Recorded IC50 for Cc1c(Br)c(=O)n(C2CCCC2)c2nc(Nc3ccc(N4CCN(C)CC4)cn3)ncc12 with FGF receptor (FGFr) tyrosine kinase (Homo sapiens, UniProt P11362), please?
> 5 µM

# get_value(readout= IC50, system= FGF receptor (FGFr) tyrosine kinase (Homo sapiens, UniProt P11362)) for CCOCCc1cc2cnc(Nc3ccc(N4CCNCC4)cn3)nc2n(C2CCCC2)c1=O
> 5 µM
